Cited source: patent US20250304567A1

# Test system: p-IKKa levels in L363 (NIK translocated multiple myeloma) cells
# Experimental Protocol: Effect of compounds on p-IKKa levels in L363 (NIK translocated multiple myeloma) cells (AlphaLISA SureFire Ultra p-IKKa Ser176/180)
# Format: cell-based, human
# Test Context: Homo sapiens, L-363, p-IKKa levels in L363 cells; average if tested more than once; read-out: Assay 2 IC50

| Compound | IC50 |
| --- | --- |
| CC(C)Oc1nn(C)cc1Nc1nccc(-c2csc(-c3cccc([C@]4(O)CCN(C)C4=O)c3)n2)n1 | < 100 nM |
| CC(Nc1nccc(-c2csc(-c3cccc([C@]4(O)CCN(C)C4=O)c3)n2)n1)c1ccnn1C (stereo partly drawn) | 100 to 500 nM |
| CN1CC[C@@](O)(c2cccc(-c3nc(-c4ccnc(N[C@@H]5CCC[C@H]5O)n4)cs3)c2)C1=O | > 501 nM |
| CN1CC[C@@](O)(c2cccc(-c3nc(-c4ccnc(Nc5cn(C)nc5OCC(F)F)n4)cs3)c2)C1=O | < 100 nM |
| CN1CC[C@@](O)(c2cccc(-c3nc(-c4ccnc(NCc5ccccn5)n4)cs3)c2)C1=O | > 501 nM |
| Cc1nnc(Nc2nccc(-c3csc(-c4cccc([C@]5(O)CCN(C)C5=O)c4)n3)n2)o1 | > 501 nM |
| CC(C)Cn1cnc(Nc2nccc(-c3csc(-c4cccc([C@]5(O)CCN(C)C5=O)c4)n3)n2)c1 | > 501 nM |
| CN1CC[C@@](O)(c2cccc(-c3nc(-c4ccnc(N[C@H]5CC[C@@H](C#N)CC5)n4)cs3)c2)C1=O | > 501 nM |
| CC(=O)N1CC[C@@H](Nc2nccc(-c3csc(-c4cccc([C@]5(O)CCN(C)C5=O)c4)n3)n2)C1 | > 501 nM |
| CN1CC[C@@](O)(c2cccc(-c3nc(-c4ccnc(Nc5ncccc5F)n4)cs3)c2)C1=O | > 501 nM |
| CN1CC[C@@](O)(c2cccc(-c3nc(-c4ccnc(Nc5cc(C6CC6)nn5C)n4)cs3)c2)C1=O | 100 to 500 nM |
| CC(Nc1nccc(-c2csc(-c3cccc([C@]4(O)CCN(C)C4=O)c3)n2)n1)C(=O)N1CCN(C)CC1 (stereo partly drawn) | > 501 nM |
| CN1CC[C@@](O)(c2cccc(-c3cccc(-c4ccnc(Nc5ccn(C)n5)n4)n3)c2)C1=O | > 501 nM |
| CN1CC[C@@](O)(c2cccc(-c3coc(-c4ccnc(Nc5ccn(C)n5)n4)n3)c2)C1=O | > 501 nM |
| CN1CC[C@@](O)(c2cccc(-c3nc(-c4ccnc(Nc5ccn(C6CC6)n5)n4)cs3)c2)C1=O | 100 to 500 nM |

----------
Known IC50 of a selection of molecules
# System: p-IKKa levels in L363 (NIK translocated multiple myeloma) cells
# Experimental Protocol: Effect of compounds on p-IKKa levels in L363 (NIK translocated multiple myeloma) cells (AlphaLISA SureFire Ultra p-IKKa Ser176/180)
# Type: cell-based, human
# Test Context: Homo sapiens, L-363, p-IKKa levels in L363 cells; average if tested more than once; read-out: Assay 2 IC50
Test Readout: IC50

| Molecule | Test Readout | Result |
| --- | --- | --- |
| COc1cccnc1Nc1nccc(-c2csc(-c3cccc([C@]4(O)CCN(C)C4=O)c3)n2)n1 | IC50 | > 501 nM |
| CN1CC[C@@](O)(c2cccc(-c3nc(-c4ccnc(Nc5cnn(CC6CCCO6)c5)n4)cs3)c2)C1=O (some centres unmarked) | IC50 | 100 to 500 nM |
| CNC(=O)c1cc(Nc2nccc(-c3csc(-c4cccc([C@]5(O)CCN(C)C5=O)c4)n3)n2)c(OC2CC2)cc1F | IC50 | 100 to 500 nM |
| Cc1nn(CC(F)F)cc1Nc1nccc(-n2ccc(-c3cc([C@]4(O)CCN(C)C4=O)ccn3)n2)n1 | IC50 | < 100 nM |
| CN1CC[C@@](O)(c2cccc(-c3nc(-c4ccnc(NC[C@H]5CCOC5)n4)cs3)c2)C1=O | IC50 | > 501 nM |
| CN1CC[C@@](O)(c2cccc(-c3nc(-c4ccnc(Nc5cn(C)nc5C(F)(F)F)n4)cs3)c2)C1=O | IC50 | 100 to 500 nM |
| CN1CC[C@@](O)(c2cccc(-n3ccc(-c4ccnc(Nc5ccn(C)n5)n4)n3)c2)C1=O | IC50 | 100 to 500 nM |
| CCn1ccc(Nc2nccc(-c3csc(-c4cccc([C@]5(O)CCN(C)C5=O)c4)n3)n2)n1 | IC50 | 100 to 500 nM |
| CN1CC[C@@](O)(c2cccc(-c3csc(-c4ccnc(Nc5cnn6cccnc56)n4)n3)c2)C1=O | IC50 | < 100 nM |
| CN1CC[C@@](O)(c2cccc(-c3nc(-c4ccnc(Nc5ccn(CC6CC6)n5)n4)cs3)c2)C1=O | IC50 | 100 to 500 nM |
| CO[C@H]1C[C@H](Nc2nccc(-c3csc(-c4cccc([C@]5(O)CCN(C)C5=O)c4)n3)n2)C1 | IC50 | > 501 nM |
| CN1C[C@@H](Nc2nccc(-c3csc(-c4cccc([C@]5(O)CCN(C)C5=O)c4)n3)n2)CC1=O (single isomer, unassigned) | IC50 | > 501 nM |
| CN1CC[C@@](O)(c2cccc(-c3nc(-c4ccnc(Nc5cn(C)nn5)n4)cs3)c2)C1=O | IC50 | 100 to 500 nM |
| C[C@@H](Nc1nccc(-c2nc(-c3cc([C@]4(O)CCN(C)C4=O)ccn3)cs2)n1)c1ccn(C)n1 (single isomer, unassigned) | IC50 | > 501 nM |
